Provenance of the data: patent US3997506A

# assay.procedure: in vitro
# run.parameters: human, leucocytes, % of dead cells (Average of 2 determinations), 6 hours; C4 = 1.0 μg/ml; no PHA
readout.type: cytotoxicity at 6 h (%)
Output spec: scalar in %, unitless text.

| compound | cytotoxicity at 6 h (%) |
| --- | --- |
| COc1cc2c(c(OC)c1OC)-c1ccc(OC)c(=O)cc1[C@@H](NC(C)=O)CC2 [Colchicine, colchicine, reference compound] | 1 |

Let us examine a further case.
Notebook: COc1cc2c(c(OC)c1OC)-c1ccc(SC)c(=O)cc1C(NC(=O)C13CC4CC(CC(C4)C1)C3)CC2 (single isomer, unassigned) , cytotoxicity at 6 h read as 1
